- Tested on: HNO 97 cell line
- MEASUREMENT DESCRIPTION: Anticancer activity against human HNO97 cells assessed as growth inhibition at 100 microg/mL by SRB assay relative to control
- Format: functional
- RUN PARAMETERS: read-out: GI
The compounds listed here are annotated with their inhibition of growth at 100 µg/mL.
The reply should be a number in %, with the unit left off.

These solved cases illustrate the format of a correct answer.
1. Nc1ccc(C(=O)/C=C/c2ccc(Oc3ccc(Cl)nn3)cc2)cc1    89.1
2. O=C(/C=C/c1ccc(Oc2ccc(Cl)nn2)cc1)c1ccccc1    85.3
3. COc1ccc(COc2ccc(C(=O)/C=C/c3ccc(Oc4ccc(Cl)nn4)cc3)cc2)cc1    82.4
4. O=C(/C=C/c1ccc(Oc2ccc(Cl)nn2)cc1)c1ccc(O)cc1    79.3
5. O=C(/C=C/c1ccc(Oc2ccc(Cl)nn2)cc1)c1ccc(OCc2ccc(OC(F)(F)F)cc2)cc1    81

// recorded inhibition of growth at 100 µg/mL for O=C(/C=C/c1ccc(Oc2ccc(Cl)nn2)cc1)c1ccc(OCc2ccc(F)c(Cl)c2)cc1 : 75.6

Value of measured inhibition of growth at 100 µg/mL for the entry Cc1ccc(C(=O)/C=C/c2ccc(Oc3ccc(Cl)nn3)cc2)cc1 : 84.8

# inhibition of growth at 100 µg/mL (compound: O=C(/C=C/c1ccc(Oc2ccc(Cl)nn2)cc1)c1ccc([N+](=O)[O-])cc1 ) is 88.6

Measured inhibition of growth at 100 µg/mL, O=C(/C=C/c1ccc(Oc2ccc(Cl)nn2)cc1)c1ccc(OCc2ccccc2)cc1 : 85.5

Looking up COc1cccc2c1C(=O)c1c(O)c3c(c(O)c1C2=O)C[C@@](O)(C(=O)CO)C[C@@H]3O[C@H]1C[C@H](N)[C@H](O)[C@H](C)O1 , I found its inhibition of growth at 100 µg/mL recorded as 84.5

Entry O=C1NC(=O)/C(=C\c2ccc(Oc3ccc(Cl)nn3)cc2)S1 — recorded inhibition of growth at 100 µg/mL = 40.3

inhibition of growth at 100 µg/mL for COc1ccc(C(=O)/C=C/c2ccc(Oc3ccc(Cl)nn3)cc2)cc1 is 69.1

So, CC(=O)Nc1ccc(C(=O)/C=C/c2ccc(Oc3ccc(Cl)nn3)cc2)cc1 ? Its inhibition of growth at 100 µg/mL was 85.5

inhibition of growth at 100 µg/mL in this record for CC(=O)Nc1cccc(C(=O)/C=C/c2ccc(Oc3ccc(Cl)nn3)cc2)c1 : 83.7

For record O=C(/C=C/c1ccc(Oc2ccc(Cl)nn2)cc1)c1ccc(OCc2ccc(Cl)cc2Cl)cc1 the listed inhibition of growth at 100 µg/mL is 83.3
